Each entry below carries its recorded concentration at 0.5 h.
Test summary: In-vivo effect: animal experiments and sample analysis (plasma, brain, CSF concentration)
Stated conditions: rat, 0.5 h between administration and CSF sampling; doses of 10.0 or 5 μmol/kg; read-out: conc CSF
Give a bare numeral; the unit nM is implied.

Take a look at these entries with their results.
For record Cc1cnc2c(C(=O)NC3(c4ccc(C(F)(F)F)cc4F)CCOCC3O)cnn2c1 (single isomer, unassigned) [Example 81a] the listed concentration at 0.5 h is 261

Data point: Cc1nn2cc(C3CC3)cnc2c1C(=O)NC1(c2ccc(C(F)(F)F)nc2)CCOCC1 [Example 25] ; concentration at 0.5 h = 111

Entry Cc1cnc2c(C(=O)NC3(c4ccc(C(F)(F)F)cc4F)CCOCC3(C)O)cnn2c1 (single isomer, unassigned) [Example 83a] ; concentration at 0.5 h = 61

The compound listed as O=C(NC1(c2ccc(C(F)(F)F)cc2F)CCOCC1O)c1cnn2cc(C3CC3)cnc12 (single isomer, unassigned) [Example 82a] has a reported concentration at 0.5 h of 157

Moving on to another compound below.
The recorded concentration at 0.5 h for Cc1nn2cc(C3CC3)cnc2c1C(=O)NC1(c2ccc(C(F)(F)F)cn2)CCOCC1 [Example 21] is 106

====

The following compounds have recorded IC50 on PDE10 (Homo sapiens (Human)).
Sequence (Q9Y233 whole entry): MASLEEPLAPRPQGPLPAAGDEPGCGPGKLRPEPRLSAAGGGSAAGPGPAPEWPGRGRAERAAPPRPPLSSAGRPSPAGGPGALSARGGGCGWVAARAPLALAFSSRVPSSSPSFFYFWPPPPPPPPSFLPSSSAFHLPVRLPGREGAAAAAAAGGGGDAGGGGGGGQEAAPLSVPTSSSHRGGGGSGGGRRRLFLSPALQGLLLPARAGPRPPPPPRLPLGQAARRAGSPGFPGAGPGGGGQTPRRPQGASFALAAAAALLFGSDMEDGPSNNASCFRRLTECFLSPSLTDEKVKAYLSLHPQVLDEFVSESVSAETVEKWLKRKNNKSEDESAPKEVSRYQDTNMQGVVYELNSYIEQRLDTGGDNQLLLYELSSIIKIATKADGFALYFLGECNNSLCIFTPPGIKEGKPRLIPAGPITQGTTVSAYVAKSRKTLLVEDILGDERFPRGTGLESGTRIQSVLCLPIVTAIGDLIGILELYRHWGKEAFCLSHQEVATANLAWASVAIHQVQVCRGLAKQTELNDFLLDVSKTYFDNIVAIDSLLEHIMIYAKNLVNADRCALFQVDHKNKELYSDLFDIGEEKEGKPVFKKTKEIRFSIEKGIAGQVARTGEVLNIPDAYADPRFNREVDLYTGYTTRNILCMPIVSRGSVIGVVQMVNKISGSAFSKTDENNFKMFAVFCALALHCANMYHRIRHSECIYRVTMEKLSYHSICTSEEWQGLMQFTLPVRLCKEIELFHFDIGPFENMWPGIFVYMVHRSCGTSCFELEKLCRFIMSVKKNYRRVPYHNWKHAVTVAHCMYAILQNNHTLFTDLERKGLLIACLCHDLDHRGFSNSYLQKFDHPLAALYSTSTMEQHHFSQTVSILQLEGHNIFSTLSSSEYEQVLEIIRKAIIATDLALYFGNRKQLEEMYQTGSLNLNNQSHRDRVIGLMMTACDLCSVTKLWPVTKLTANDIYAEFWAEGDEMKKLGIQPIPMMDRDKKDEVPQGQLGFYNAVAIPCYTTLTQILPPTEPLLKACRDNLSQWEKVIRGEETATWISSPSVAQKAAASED

The reported value for Cc1cnc2c(C(=O)NC3(c4ccc(C(F)(F)F)cc4F)CCOCC3O)cnn2c1 (racemic) [Example 46] in terms of IC50 is > 10 µM

Given item Cc1cnc2c(C(=O)NC3(c4ccc(C(F)(F)F)cn4)CCOCC3O)cnn2c1 (racemic) [Example 64] , the value recorded as its IC50 is > 10 µM

Record summary for Cc1cnc2c(C(=O)NC3(c4ccc(C(F)(F)F)nc4)CCOCC3)cnn2c1 [Example 28] : reported IC50 = > 10 µM

Recorded IC50 (compound O=C(NC1(c2ccc(Cl)cc2F)CCOCC1)c1cnn2cc(C3CC3)cnc12 [Example 7] ): 9.11 µM

So, Cc1nn2cc(C3CC3)cnc2c1C(=O)NC1(c2ncc(C(F)(F)F)cc2F)CCOCC1O (single isomer, unassigned) [Example 90a] ? Its IC50 was 8.59 µM

Next:
Sure, the documented IC50 for Cc1cnc2c(C(=O)NC3(c4ccc(C(F)(F)F)cc4F)CCOCC3O)cnn2c1 (single isomer, unassigned) [Example 81b] is > 10 µM

====

Test summary: Plasma protein binding with equilibrium dialysis, human plasma
Assay type: in vitro ADME
Stated conditions: human plasma, 1.0 μM, equilibrium dialysis 2 hours 37° C.
Param label: returns y when PPB HUM % BINDING < 80%, returns n otherwise, including exact equality.

Problem: For the compound O=C(NC1(c2ccc(C(F)(F)F)cc2F)COCC1O)c1cnn2cc(C3CC3)cnc12 (single isomer, unassigned) [Example 68] , is PPB HUM % BINDING under 80%? n

Dear reviewer, please state whether Cc1cnc2c(C(=O)NC3(c4ccc(C(F)(F)F)cc4F)CCOCC3O)cnn2c1 (single isomer, unassigned) [Example 81b] has PPB HUM % BINDING strictly beneath 80%. y

# check: PPB HUM % BINDING < 80% for O=C(NC1(c2ccc(C(F)(F)F)cc2F)COCC1O)c1cnn2cc(C3CC3)cnc12 (single isomer, unassigned) [Example 69] n
